System: B16F10-Cas9 cells co-cultured with Pmel-1 T cells
test_name: Genome-scale CRISPR-Cas9 screen, selection with Pmel-1 T cells
Type: cell-based, mouse
condition: Table 3; B16F10-Cas9 cells pre-treated with IFNγ, co-cultured with Pmel-1 T cells 1:1 for three days; negative = depleted, positive = enriched
Kindly apply the following: True if Pmel+ (sgRNA Log(2) fold change, Pmel-1 selection versus control T cells) is less than 0, False in every other case.

Some entries whose results are on file:
sequence_code="CCATTGTATAACTGTCTGCG (chemistry not fully specified)" measurement_target="B16F10-Cas9 cells co-cultured with Pmel-1 T cells" label=True
sequence_code="CCCGGGAATAGCGTACAGCT (chemistry not fully specified)" measurement_target="B16F10-Cas9 cells co-cultured with Pmel-1 T cells" label=False
sequence_code="TGAGTATACTTGAATTTGAG (chemistry not fully specified)" measurement_target="B16F10-Cas9 cells co-cultured with Pmel-1 T cells" label=False
sequence_code="ACCTCCGAATGATCAATGGG (chemistry not fully specified)" measurement_target="B16F10-Cas9 cells co-cultured with Pmel-1 T cells" label=True
sequence_code="CTTGGTCAAATACACTACAG (chemistry not fully specified)" measurement_target="B16F10-Cas9 cells co-cultured with Pmel-1 T cells" label=False

Does TTCAAAGCAAGGCTCTACTG (chemistry not fully specified) have Pmel+ (sgRNA Log(2) fold change, Pmel-1 selection versus control T cells) strictly under 0?
True

Does CAGCATTGACAATACGACCA (chemistry not fully specified) have Pmel+ (sgRNA Log(2) fold change, Pmel-1 selection versus control T cells) strictly under 0?
False

###

# Pmel+ (sgRNA Log(2) fold change, Pmel-1 selection versus control T cells) values compiled below
Tested on: B16F10-Cas9 cells co-cultured with Pmel-1 T cells
test_name: Genome-scale CRISPR-Cas9 screen, selection with Pmel-1 T cells
Format: cell-based, mouse
condition: Table 3; B16F10-Cas9 cells pre-treated with IFNγ, co-cultured with Pmel-1 T cells 1:1 for three days; negative = depleted, positive = enriched
Enter the number alone.

Request the reported Pmel+ (sgRNA Log(2) fold change, Pmel-1 selection versus control T cells) associated with TGAATAAATCCATCAGACAG (chemistry not fully specified)
9.92

Request the reported Pmel+ (sgRNA Log(2) fold change, Pmel-1 selection versus control T cells) associated with CTGAGCATGTCTAACACGAG (chemistry not fully specified)
-0.37

Request the reported Pmel+ (sgRNA Log(2) fold change, Pmel-1 selection versus control T cells) associated with GGATAGACGCCCAGCCACTG (chemistry not fully specified)
9.31

Request the reported Pmel+ (sgRNA Log(2) fold change, Pmel-1 selection versus control T cells) associated with ATTTCAAGAGATTCTATGCT (chemistry not fully specified)
1.73

###

System: B16F10-Cas9 cells pulsed with SIINFEKL peptide, co-cultured with OT-I T cells
test_name: Genome-scale CRISPR-Cas9 screen, selection with OT-I T cells
Format: cell-based, mouse
condition: Log2 fold change of gRNAs per gene, OT-I screen, genes depleted (FDR < 0.05)
readout_type: logFC
Enter the number alone.

Request the reported logFC associated with Chic2 (guide GCTCAAGTACTCGCCCGACC; chemistry not fully specified)
−2.09

Request the reported logFC associated with Sepsecs (guide CACCGGATCGTCCAATTCCG; chemistry not fully specified)
−2.62

Request the reported logFC associated with Nudcd2 (guide GGTTCCTTGCGGGACTCCGT; chemistry not fully specified)
−2.09

Request the reported logFC associated with Mrps21 (guide GCGTCGTCGACTTATGACTT; chemistry not fully specified)
−2.09

Provenance of the data: patent US11820822B2
